test system: 11β-HSD1 (Homo sapiens)
Sequence (P28845 whole entry): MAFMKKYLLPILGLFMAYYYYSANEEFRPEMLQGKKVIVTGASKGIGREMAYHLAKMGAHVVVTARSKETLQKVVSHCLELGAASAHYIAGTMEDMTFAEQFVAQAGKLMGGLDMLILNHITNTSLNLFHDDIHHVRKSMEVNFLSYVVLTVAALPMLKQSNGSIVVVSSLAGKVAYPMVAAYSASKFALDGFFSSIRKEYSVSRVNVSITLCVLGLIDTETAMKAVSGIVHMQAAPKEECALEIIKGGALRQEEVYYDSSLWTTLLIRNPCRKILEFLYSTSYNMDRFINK
run description: biochemical
assay context: IC50 Range, Biological Test Example 1; microsomes from CHO cells overexpressing human 11β-HSD1
pIC50: −log10 of the molar value.
Please go through the items and note down their pIC50.

The following molecules have reported results that may help.
Task: For the molecule shown here, C[C@@H](c1ccc(-c2ccc(F)cc2)cc1)N1CC[C@](CCCOP(=O)(O)O)(c2ccccc2)OC1=O , give the reported pIC50.
Output: > 7.00

Task: What value of measured pIC50 is listed for C[C@@H](c1ccc(F)cc1)N1CC[C@](CCCO)(c2ccccc2)OC1=O ?
Output: > 7.00

Task: Look up pIC50: C=CC[C@]1(c2ccc(F)cc2)CCN([C@H](C)c2ccc(Cl)c(F)c2)C(=O)O1 (single isomer, unassigned) [EXAMPLE 497 Isomer 4]
Output: > 7.00

Task: May I ask what pIC50 has been recorded for CC(C)C1(CCCO)CCN([C@@H](C)c2ccc(Br)cc2)C(=O)O1 (single isomer, unassigned) [EXAMPLE 200 Isomer 1] ?
Output: > 7.00

Task: Dear colleague, I am looking for the recorded pIC50 of the following molecule: C=CCC1(c2cccs2)CCN([C@@H](C)c2ccc(Br)cc2)C(=O)O1 (single isomer, unassigned) [EXAMPLE 157 Isomer 1]
Output: > 7.00

Provide each entry's pIC50 from the list below.
1. COC(=O)NC(C)(C)C[C@]1(c2ccc(F)cc2)CCN([C@@H](C)c2ccc(Br)cc2)C(=O)O1
2. COC(=O)c1ccc(-c2cccc(N3CCC(C)(c4ccccc4)OC3=O)c2)cc1 (centres unmarked)
3. CC1(c2ccccn2)CCN(c2cccc(-c3ccc(F)cc3F)c2)C(=O)O1 (centres unmarked)

Output:
1. > 7.00
2. 6.00 to 7.00
3. > 7.00

Parameter requested: pIC50. Apply to each item below.
1. CC(O)CC[C@]1(c2ccc(F)cc2)CCN([C@@H](C)c2ccc(Cl)cc2)C(=O)O1 (single isomer, unassigned) [EXAMPLE 383 Isomer 1]
2. CC1(c2ccccc2)CCN(Cc2cccc(Br)c2)C(=O)O1 (centres unmarked)
3. CC(C)C1(CC(O)CO)CCN([C@@H](C)c2ccc(-c3ccc(F)cc3F)cc2)C(=O)O1 (single isomer, unassigned) [EXAMPLE 223 Isomer 3]
4. O=C1OC(CCO)(c2ccccc2)CCN1c1ccc(F)c(-c2ccc(F)cc2)c1 (centres unmarked) [EXAMPLE 96]
5. CNS(=O)(=O)c1ccc(-c2cccc(N3CCC(C)(c4ccccc4)OC3=O)c2)cc1 (centres unmarked)
6. C[C@@H](c1ccc(OCC(F)(F)F)cc1)N1CC[C@](CCC(N)=O)(c2ccc(F)cc2)OC1=O
7. CC1(c2ccccc2)CCN(c2nccc(-c3ccc(F)cc3F)n2)C(=O)O1 (centres unmarked)

Output:
["> 7.00", "6.00 to 7.00", "< 7.00", "> 7.00", "6.00 to 7.00", "> 7.00", "6.00 to 7.00"]

Provide pIC50 values for the following items, in order.
1. C[C@@H](c1ccc(Br)cc1)N1CCC(CCCO)(c2ccc(F)cc2)OC1=O (single isomer, unassigned) [EXAMPLE 227 Isomer 1]
2. O=C1OC(CCO)(c2ccccc2)CCN1c1cccc(-c2ccc(F)cc2Cl)c1 (centres unmarked)
3. C=CC[C@]1(c2ccc(F)cc2)CCN([C@@H](C)c2ccc(C(=O)OC)cc2)C(=O)O1
4. C[C@@H](c1ccc(C(F)(F)F)cc1)N1CC[C@](CCCO)(c2ccc(F)cc2)OC1=O
5. CSc1ccc(C2(C)CCN([C@@H](C)c3ccccc3)C(=O)O2)cc1 (some centres unmarked)
6. CS(=O)(=O)NCCC1(c2ccccc2)CCN(c2cccc(-c3ccc(F)cc3F)c2)C(=O)O1 (centres unmarked)
7. CC(C[C@]1(c2ccc(F)cc2)CCN([C@@H](C)c2ccc(Br)cc2)C(=O)O1)C(N)=O (single isomer, unassigned) [EXAMPLE 523 Isomer 1]

Output:
["> 7.00", "> 7.00", "> 7.00", "> 7.00", "> 7.00", "> 7.00", "> 7.00"]

Batch request: pIC50 per item, same order as input.
1. C=CC[C@]1(c2ccc(F)cc2)CCN([C@@H](C)c2ccc(-c3ccc(F)cc3F)cc2)C(=O)O1 (single isomer, unassigned) [EXAMPLE 111 Isomer 2]
2. C[C@@H](c1cccc(OCC(=O)N2CCNCC2)c1)N1CCC(C)(c2ccccc2)OC1=O (mixture of isomers)
3. C[C@@H](c1ccc(-c2ccc(F)cc2)cc1)N1CC[C@](CCN2CCNC(=O)C2)(c2ccc(F)cc2)OC1=O
4. C[C@@H](c1ccc(Br)cc1)N1CC[C@](CCN2CCCC2)(c2ccc(F)cc2)OC1=O
5. CC(O)CC1(C(C)C)CCN([C@@H](C)c2ccc(-c3ccc(F)cc3F)cc2)C(=O)O1 (some centres unmarked)

Output:
1: > 7.00; 2: 6.00 to 7.00; 3: > 7.00; 4: > 7.00; 5: > 7.00

// input: 2 molecules below; output: pIC50 for each
1. CC1(c2ccccc2)CCN(c2nccc(-c3cccc(Cl)c3)n2)C(=O)O1 (centres unmarked)
2. Cc1ccc([C@H](C)N2CC[C@](CCCO)(c3ccc(F)cc3)OC2=O)cn1

Output:
6.00 to 7.00
> 7.00
